- Target Or Test System: T1, mSlo1/β4(N123K) channel (mouse | human, UniProt Q08460 1-1209; Q86W47 1-210, N123K)
- T1 construct: mSlo1, BK channel α subunit (KCNMA1) of mouse, full-length cDNA, GenBank HQ221747.1; human BK channel β4 subunit (KCNMB4), full-length cDNA, GenBank AF207992.1; source: HEK293, transiently co-transfected (pcDNA3.1(+)), in excised membrane patches; copies: 4 + 4
- T1 sequence (Q08460 whole entry, chain 1 of 2): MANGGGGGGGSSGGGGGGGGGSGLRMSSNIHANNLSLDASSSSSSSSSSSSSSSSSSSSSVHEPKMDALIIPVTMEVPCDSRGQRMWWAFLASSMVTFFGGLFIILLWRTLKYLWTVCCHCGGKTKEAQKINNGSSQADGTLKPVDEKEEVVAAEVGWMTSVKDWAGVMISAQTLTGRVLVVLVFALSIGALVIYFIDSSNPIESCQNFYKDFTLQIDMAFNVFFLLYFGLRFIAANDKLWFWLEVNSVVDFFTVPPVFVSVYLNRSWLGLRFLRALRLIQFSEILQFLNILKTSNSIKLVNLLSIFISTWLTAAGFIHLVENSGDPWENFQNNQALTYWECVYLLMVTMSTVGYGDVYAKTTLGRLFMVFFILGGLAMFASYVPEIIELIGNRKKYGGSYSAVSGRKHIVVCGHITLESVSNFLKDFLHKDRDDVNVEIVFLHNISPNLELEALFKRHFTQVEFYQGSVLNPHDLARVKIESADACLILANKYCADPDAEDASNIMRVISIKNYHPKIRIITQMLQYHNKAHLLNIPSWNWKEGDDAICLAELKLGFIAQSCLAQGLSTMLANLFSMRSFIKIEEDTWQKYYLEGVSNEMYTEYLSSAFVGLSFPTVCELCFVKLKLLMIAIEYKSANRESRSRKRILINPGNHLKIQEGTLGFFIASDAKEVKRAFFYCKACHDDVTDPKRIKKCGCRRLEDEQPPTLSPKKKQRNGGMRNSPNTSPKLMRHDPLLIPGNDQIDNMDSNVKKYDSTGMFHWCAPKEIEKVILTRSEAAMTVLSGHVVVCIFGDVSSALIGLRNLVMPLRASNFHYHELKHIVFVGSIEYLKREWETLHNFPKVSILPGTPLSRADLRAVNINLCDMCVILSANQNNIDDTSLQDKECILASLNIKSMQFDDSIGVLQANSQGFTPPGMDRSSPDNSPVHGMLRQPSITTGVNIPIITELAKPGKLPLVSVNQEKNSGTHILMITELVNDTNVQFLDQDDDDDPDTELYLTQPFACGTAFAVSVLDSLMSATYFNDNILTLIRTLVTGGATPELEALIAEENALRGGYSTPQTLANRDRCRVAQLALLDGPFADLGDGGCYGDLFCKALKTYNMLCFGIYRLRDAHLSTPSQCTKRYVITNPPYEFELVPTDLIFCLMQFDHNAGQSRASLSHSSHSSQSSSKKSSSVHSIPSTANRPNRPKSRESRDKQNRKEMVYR
- T1 sequence (Q86W47 whole entry N123K, chain 2 of 2): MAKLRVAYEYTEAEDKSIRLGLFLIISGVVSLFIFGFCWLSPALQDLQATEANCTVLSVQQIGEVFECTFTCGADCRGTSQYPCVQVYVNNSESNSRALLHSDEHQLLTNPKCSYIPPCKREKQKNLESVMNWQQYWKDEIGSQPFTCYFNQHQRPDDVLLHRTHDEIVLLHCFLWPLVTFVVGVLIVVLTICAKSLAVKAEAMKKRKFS
- Experiment Description: patch-clamp electrophysiology (time course of current block); outside-out patches of transfected HEK293 cells perfused with 1 μM ChTX; steps to +100 mV, intracellular 10 μM Ca2+; τon and τoff fitted to a first order bimolecular reaction scheme; KD = [ChTX]/((τoff/τon) − 1)
- Reported Conditions: one partner purified
Experimental Readout: pKd
Friendly reminder that pKd comes from taking -log10 of the concentration in mol/L.

Enquiry: Any idea what pKd was measured for QFTNVSCTTSKECWSVCQRLHNTSRGKCMNKKCRCYS (charybdotoxin (ChTX), scorpion toxin; also called ChTX; source: bought: Sigma-Aldrich (Art. No. C7802)) [Charybdotoxin] ?
Return: 7.35
